Exercise: state measured IC50 for each of the compounds provided.
System: MCF7
protocol.details: Cytotoxicity against human MCF7 cells assessed as induction of cell death incubated for 2 days by MTT assay
Type: functional, cell-based
experimental.setup: MCF7, 48 h

As a guide, the following entries are already answered.
CO[C@@H]1C=C2[C@@H]3CC(C)(C)CC[C@]3(CO)[C@@H](O)C[C@@]2(C)[C@]2(C)CC[C@H]3[C@](C)(CO)[C@@H](O[C@@H]4O[C@H](C)[C@H](O)[C@H](O)[C@H]4O)CC[C@]3(C)[C@@H]12: > 50 µM
C[C@H]1O[C@@H](O[C@H]2CC[C@@]3(C)[C@@H](CC[C@]4(C)[C@@H]3C=CC3=C5CC(C)(C)CC[C@]5(CO)C(=O)C[C@]34C)[C@]2(C)CO)[C@H](O)[C@@H](O[C@@H]2O[C@H](CO)[C@@H](O)[C@H](O)[C@H]2O)[C@H]1O: > 50 µM

# batch: return IC50 for each of the 3 compounds below
1. CC(=O)OC[C@@]1(C)[C@@H]2CC[C@]3(C)[C@H](C=C[C@]45OC[C@@]6(CCC(C)(C)C[C@H]64)[C@@H](O)C[C@]53C)[C@@]2(C)CC[C@@H]1O[C@@H]1O[C@H](C)[C@H](O)[C@H](O[C@@H]2O[C@H](CO)[C@@H](O)[C@H](O)[C@H]2O)[C@H]1O
2. C[C@@H]1O[C@@H](O[C@H]2[C@H](O)[C@@H](O)[C@H](O[C@H]3CC[C@]4(C)[C@H]5C=C[C@]67OC[C@@]8(CCC(C)(C)C[C@H]86)[C@@H](O)C[C@@]7(C)[C@]5(C)CC[C@H]4C3(C)C)O[C@@H]2CO[C@@H]2O[C@H](CO)[C@@H](O)[C@H](O)[C@H]2O)[C@H](O)[C@H](O)[C@H]1O
3. CO[C@@H]1C=C2C3CC(C)(C)CC[C@]3(CO)[C@H](O)C[C@@]2(C)[C@]2(C)CC[C@H]3[C@](C)(CO)[C@@H](O[C@@H]4O[C@H](C)[C@H](O)[C@H](O[C@@H]5O[C@H](CO)[C@@H](O)[C@H](O)[C@H]5O)[C@H]4O)CC[C@]3(C)[C@@H]12 (stereo not given in full)

1. > 50 µM
2. > 50 µM
3. > 50 µM

----------
protocol.details: Cytotoxicity against human Hep3B cells assessed as induction of cell death incubated for 2 days by MTT assay
Type: functional, cell-based, Hep 3B2
experimental.setup: 48 h
Exercise: state measured pIC50 for each of the compounds provided.
One number for each entry, as −log10 of the molar value.

CC(=O)OC[C@H]1O[C@@H](O[C@H]2[C@@H](O)[C@@H](C)O[C@@H](O[C@H]3CC[C@@]4(C)[C@@H](CC[C@]5(C)[C@@H]4C=C[C@]46OC[C@@]7(CCC(C)(C)C[C@H]74)[C@H](O)C[C@]65C)[C@]3(C)CO)[C@@H]2O)[C@H](O)[C@@H](O)[C@@H]1O: 5.12
C[C@H]1O[C@@H](O[C@H]2CC[C@@]3(C)[C@@H](CC[C@]4(C)[C@@H]3C=C[C@]35OC[C@@]6(CCC(C)(C)C[C@H]63)[C@H](O)C[C@]54C)[C@]2(C)CO)[C@H](O)[C@@H](O[C@@H]2O[C@H](CO)[C@@H](O)[C@H](O)[C@H]2O)[C@H]1O: 5.02

From here, focus on the item given below.
Give me measured pIC50, please, for this compound: C[C@H]1O[C@@H](O[C@H]2CC[C@@]3(C)[C@@H](CC[C@]4(C)[C@@H]3C=C[C@]35OC[C@@]6(CCC(C)(C)C[C@H]63)C(=O)C[C@]54C)[C@]2(C)CO)[C@H](O)[C@@H](O[C@@H]2O[C@H](CO)[C@@H](O)[C@H](O)[C@H]2O)[C@H]1O
5.11
